target: T1, human serum albumin (human, UniProt P02768 25-609); test: SPR Biacore 8K+ SCK, albumin on chip, pH 5.5
T1 construct: Immobilised on SPR chips; also added in solution in the FcRn occupancy assays; also called HSA; humanSA
Readout: kon (M⁻¹ s⁻¹)
Answers are plain numbers, in M⁻¹ s⁻¹.

These recorded examples may help you get a feel for the data.
* Alb23 M34A (VHH, VHH alone) VHH: EVQLLESGGGLVQPGGSLRLSCAASGFTFRSFGASWVRQAPGKGPEWVSSISGSGSDTLYADSVKGRFTISRDNSKNTLYLQMNSLRPEDTAVYYCTIGGSLSRSSQGTLVTVSS | 1.13e+06
* Alb23 G33A/S101A (VHH, VHH alone) VHH: EVQLLESGGGLVQPGGSLRLSCAASGFTFRSFAMSWVRQAPGKGPEWVSSISGSGSDTLYADSVKGRFTISRDNSKNTLYLQMNSLRPEDTAVYYCTIGGALSRSSQGTLVTVSS | 1.22e+06
* Alb23 G99A (VHH, VHH alone) VHH: EVQLLESGGGLVQPGGSLRLSCAASGFTFRSFGMSWVRQAPGKGPEWVSSISGSGSDTLYADSVKGRFTISRDNSKNTLYLQMNSLRPEDTAVYYCTIAGSLSRSSQGTLVTVSS | 1.11e+06
* Alb23 L59A (VHH, VHH alone) VHH: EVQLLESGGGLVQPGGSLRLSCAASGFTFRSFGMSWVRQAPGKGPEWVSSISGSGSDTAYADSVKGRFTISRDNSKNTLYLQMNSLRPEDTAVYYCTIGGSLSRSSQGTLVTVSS | 935000

Next item in the queue.
Ask | Requested field: kon. Item: Alb23 G100A (VHH, VHH alone) VHH: EVQLLESGGGLVQPGGSLRLSCAASGFTFRSFGMSWVRQAPGKGPEWVSSISGSGSDTLYADSVKGRFTISRDNSKNTLYLQMNSLRPEDTAVYYCTIGASLSRSSQGTLVTVSS
Reply | 950000
